Items are presented alongside their recorded GI50.
test system: M19-MEL; test: NCI tumour cell line growth inhibition, 48 h
Activity calls are given as the source filed them. Cut-off read from the data, not from the text of the source: active = GI50 up to about 1.1 µM and inactive = higher.
READOUT LABEL: GI50

MOLECULE	READOUT LABEL	OBSERVED RESULT
Cc1ccc(NC(=O)CCc2nnc(N)o2)cc1	GI50	> 100 µM (inactive)
CNS(=O)(=O)NN(C)S(=O)(=O)c1ccc(Br)cc1	GI50	> 100 µM (inactive)
COC(=O)C(NC(=O)c1ccccc1)C(c1ccc(Cl)cc1)P(=O)(OC)OC (stereo not given)	GI50	> 100 µM (inactive)
COC(=O)/C(C#N)=C(\N)C(Cl)(Cl)Cl	GI50	2.43 µM (inactive)
CC12OC(=O)C(C#N)C1(C)C1C(=O)CCCC12 (stereo not given)	GI50	> 100 µM (inactive)

====

tested on: 786-0; assay: NCI tumour cell line growth inhibition, 48 h
Calls of active or inactive are those of the source. Rule as the data show it: active = GI50 up to about 1.1 µM and inactive = higher.
READOUT LABEL: GI50

SMILES REPRESENTATION	OBSERVED RESULT
O=C(O)CNCc1c2ccccc2[n+]([O-])c2ccccc12	58.2 µM (inactive)
O=C1/C(=C/c2ccccc2)CN(C(=O)/C=C/c2ccccc2)C/C1=C\c1ccccc1	4.09 µM (inactive)
COC(=O)c1ccc2n1C1CC3CC(CC2C3)C1	> 100 µM (inactive)
O=C1c2cccc3cc([N+](=O)[O-])cc(c23)C(=O)N1CCCN1CCN(CCCN2C(=O)c3cccc4cc([N+](=O)[O-])cc(c34)C2=O)CC1	0.0594 µM (active)

====

Items are presented alongside their recorded GI50.
test system: SNB-75; assay: NCI tumour cell line growth inhibition, 48 h
The source made the active and inactive calls. Cut-off read from the data, not from the text of the source: active = GI50 up to about 1.1 µM and inactive = higher.

COMPOUND	GI50
CC(N)C(=O)c1ccc(O)cc1 (stereo not drawn)	> 100 µM (inactive)
Cc1cc(C)nc(NS(=O)(=O)c2ccc(Nc3c4ccccc4nc4c(C(=O)N5CCN(CCO)CC5)cccc34)cc2)n1	95.7 µM (inactive)
O=c1cnn(C2OC(C(O)CO)C(O)C2O)c(=O)[nH]1 (stereo not drawn)	> 100 µM (inactive)

====

system: CAKI-1; assay: NCI tumour cell line growth inhibition, 48 h
Active and inactive are the calls of the source. Cut-off read from the data, not from the text of the source: active = GI50 up to about 1.1 µM and inactive = higher.
Outcomes: true (1) = active, false (0) = inactive

MOLECULE	GROUP LABEL
CC1=C(N(C)C)C(=O)c2nc3n(c2C1=O)CCC3OC(N)=O (configuration not stated)	false (0)
COc1ccc(C2Oc3c(cccc3OC)C=C2[N+](=O)[O-])cc1OC (configuration not stated)	false (0)
CC1OC1C(=O)C1(O)C(C)C(O)C23OC2(C(O)c2c(O)cccc2C3=O)C1O (configuration not stated) [CERVICARCIN]	true (1)
Cc1c(C(=O)CSc2nc3cc([N+](=O)[O-])ccc3[nH]2)c(=O)n(-c2ccccc2)n1C	false (0)
CN1CCN(C)C12C=CC=CC21CC1	false (0)
COc1nc2nccc-2c2occn12	false (0)
CN(C)CCCn1c(Cc2ccccc2)nc2cc(C(F)(F)F)ccc21	false (0)

====

system: MDA-N; assay: NCI tumour cell line growth inhibition, 48 h
Activity calls are given as the source filed them. No stated cut-off is given here; in the data, active = GI50 up to about 1.1 µM and inactive = higher.
Items are presented alongside their recorded GI50.
READOUT LABEL: GI50

COMPOUND	READOUT LABEL	OBSERVED RESULT
CCN(CC)CCNc1nc(N)c(C#N)c(C#N)c1C#N	GI50	> 10 µM (inactive)
COc1ccccc1N1C(=O)CSC1c1cc(OC)c(OC)c(OC)c1 (stereo not drawn)	GI50	11.9 µM (inactive)
CCOC(=O)C1=CNC2=N[C@H]3CCCC[C@@H]3N2C1=O	GI50	> 100 µM (inactive)
CC(C)(C)OC(=O)N1CCc2c(n(C/C=C/c3ccccc3)[nH]c2=O)C1	GI50	> 100 µM (inactive)
O=c1cnn(C2OC(C(O)CO)C(O)C2O)c(=O)[nH]1 (stereo not drawn)	GI50	> 100 µM (inactive)
C=CCNC(=S)N/C=C(\C(=O)OCC)C(=O)C(=O)OCC	GI50	> 100 µM (inactive)
Nc1nc(O)c2c(n1)NCN(CCCN1CCOCC1)C2	GI50	> 100 µM (inactive)
Cc1nn(-c2ccccn2)c2c1C(SC#N)=C(C=O)CC2	GI50	17.7 µM (inactive)
COC(=O)c1ccc2n1C1CC3CC(CC2C3)C1	GI50	> 100 µM (inactive)
CC(C)OC(=O)NNc1cc(Cl)ccc1Cl	GI50	73.6 µM (inactive)
C[N+](C)(C)CC1CCCC1=O (stereo not drawn)	GI50	1.69 µM (inactive)
O=C1C2=Cc3ccccc3CCN2c2ccc([N+](=O)[O-])cc21	GI50	> 100 µM (inactive)
Cn1c2c(c3c(=O)[nH]ncc31)CCc1ccccc1-2	GI50	25.9 µM (inactive)
COC(=O)C(Cc1cn(C(C)=O)c2ccccc12)P(=O)(OC)OC (stereo not drawn)	GI50	> 100 µM (inactive)
CCN(CC)CCOCC1CCCN2CCCCC12 (stereo not drawn)	GI50	> 100 µM (inactive)
CCN(CC)c1ccc2cc(-c3nnc(-c4ccccc4O)o3)c(=O)oc2c1	GI50	12.5 µM (inactive)
CSc1ncnc2c1ncn2C1OC(CO)C(O)OC1O (stereo not drawn)	GI50	2.24 µM (inactive)
COc1ccc(Cc2ccccc2C(=O)O)c2ccccc12	GI50	27.6 µM (inactive)
O=[N+]([O-])c1cccc2nc3ccccc3c(NCCc3cccc[n+]3[O-])c12	GI50	0.0153 µM (active)
COc1cc2c(cc1OC)C(=O)/C(=C/c1cc(OC)c(OC)c(OC)c1)C2	GI50	> 100 µM (inactive)
CCN1CCN(c2nc3ccc([N+](=O)[O-])cc3nc2C(=O)c2ccccc2)CC1	GI50	18.7 µM (inactive)
CC(C)C(C/C=C1/CC(CO)(COC(=O)C2CCCCC2)OC1=O)C(C)C (stereo not drawn)	GI50	19.1 µM (inactive)
CCOC(=O)Cn1nc2ccc(Nc3nc4ccccc4nc3C(=O)OCC)cc2n1	GI50	> 100 µM (inactive)
Cc1nc2c(Cl)cc(Cl)cc2c2c1CCO2	GI50	> 100 µM (inactive)
CC1(C)CC(=O)C2=C(C1)OC1=C(C(=O)CC(C)(C)C1)C2CC(c1ccccc1)c1ccc(O)c(O)c1O (stereo not drawn)	GI50	> 10 µM (inactive)
Nc1ccc(C(=O)c2cn(CCN3CCOCC3)c3ccccc23)c2ccccc12	GI50	32.5 µM (inactive)
CC(=O)OI1NC(=O)c2ccccc21	GI50	> 100 µM (inactive)
C=C1C(=O)O[C@@H]2C[C@@]3(C)CCC[C@H](C)C3=C[C@H]12 [HELENINE]	GI50	4.66 µM (inactive)
O=C1c2ccsc2C(=O)c2sc(CO)cc21	GI50	< 0.0133 µM (active)
COc1ccc2c(c1)C1=NCCN(CCN(C)C)c3ccc([N+](=O)[O-])c(c31)N2	GI50	0.542 µM (active)
CSc1cc(Cl)c(C)cc1S(=O)(=O)NC(=O)NNc1ccc(C)cc1	GI50	> 100 µM (inactive)
COC(=O)c1ccccc1/C=C1\Cc2cc(C)cc(C)c2C1=O	GI50	> 100 µM (inactive)
Cn1c2ccccc2c(=NNc2ccc(C(=O)O)cc2)c2ccccc21	GI50	17.7 µM (inactive)
COC(=O)/C=C/c1ccc2nncnc2c1.COC(=O)/C=C\c1ccc2nncnc2c1	GI50	20.9 µM (inactive)
Cc1cc(/N=C/c2ccc(Cl)cc2)n(-c2ccccc2)n1	GI50	32.2 µM (inactive)
CC(=O)OC1CCN(C(=O)c2ccccc2)CC1CC1(c2cc3ccccc3[nH]2)OCCO1 (stereo not drawn)	GI50	39.2 µM (inactive)
O=C(NNc1nc(-c2ccccc2)cs1)Nc1ccccc1	GI50	24.2 µM (inactive)
CN(C)CCCn1c(Cc2ccccc2)nc2cc(C(F)(F)F)ccc21	GI50	18.3 µM (inactive)
